- Test system: A549-ACTB-RAB5A
- procedure.details: lowest phenotypically active concentration; higher = less potent
- condition.details: treatment time: 24 h
Structures can show the parent of a compound that is named as a salt.
test.readout: lowest phenotypically active concentration (µM)

| compound | op | reading |
| --- | --- | --- |
| COc1cc([C@@H]2c3cc4c(cc3[C@H](O)[C@H]3COC(=O)[C@H]23)OCO4)cc(OC)c1OC | ≤ | 0.3 |
| C/C=C(/C)C(=O)O[C@H]1C(C)=C2[C@H]([C@@H]1OC(=O)CCCCCCC)[C@@](C)(OC(C)=O)C[C@H](OC(=O)CCC)[C@@]1(O)[C@H]2OC(=O)[C@@]1(C)O | ≤ | 0.3 |
| C[C@H](N)Cc1ccccc1 | = | 3 |
| Cc1cc2c(C(C)C)c(O)c(O)c(C=O)c2c(O)c1-c1c(C)cc2c(C(C)C)c(O)c(O)c(C=O)c2c1O | = | 3 |
| CN1C[C@H](C(=O)N[C@]2(C)O[C@@]3(O)[C@@H]4CCCN4C(=O)[C@H](Cc4ccccc4)N3C2=O)C[C@@H]2c3cccc4[nH]cc(c34)C[C@H]21.CN1C[C@H](C(=O)N[C@]2(C)O[C@@]3(O)[C@@H]4CCCN4C(=O)[C@H](Cc4ccccc4)N3C2=O)C[C@@H]2c3cccc4[nH]cc(c34)C[C@H]21 [dihydroergotamine] | = | 9 |
| O=C1NC(=O)c2c1c1c3ccccc3n3c1c1c2c2ccccc2n1C1CCC3O1 | ≤ | 0.3 |
| Cc1c(C(=O)Nc2cccc(C(F)(F)F)c2)cc(-c2ccccc2)n1CCCN1CCOCC1 | = | 9 |
| CC(C)[C@@]1(NC(=O)[C@@H]2C[C@@H]3c4cccc5[nH]cc(c45)C[C@H]3N(C)C2)O[C@@]2(O)[C@@H]3CCCN3C(=O)[C@H](Cc3ccccc3)N2C1=O [Dihydroergocristine mesylate] | = | 9 |
